Tested on: Vero E6 infected with SARS-CoV-2
Assay summary: SARS-CoV-2 infection rate relative to infected DMSO; higher = more infection, active = 60 or less
Study conditions: 24 h
Hello, when you answer, please use one of the following outcomes: active, inactive

Below, 4 compounds whose answers are already recorded.
CCN1CCN(Cc2ccc(-c3cc4c(N[C@H](C)c5ccccc5)ncnc4[nH]3)cc2)CC1 (10 µM)
inactive
CCc1ccc(/C=C/C(=O)Nc2ccc(C(C)=O)cc2)o1 [heclin] (10 µM)
inactive
COc1cc(-n2cnc3cc(-c4ccc(Cl)cc4)sc3c2=O)ccc1OCCN1CCCC1 (10 µM)
active
Cc1nc(C)c(C)nc1C [chuanxiongzine] (10 µM)
inactive

Turning now to a further record.
[ask] Recorded test call requested for CC1(C)C(/C=C/C=C/C=C/C=C2\N(CCCCS(=O)(=O)O)c3ccc4ccccc4c3C2(C)C)=[N+](CCCCS(=O)(=O)[O-])c2ccc3ccccc3c21 [indocyanine-green] (10 µM)
[reply] inactive
